experiment: Approximate solubility in 20 solvent systems at RT; type: physicochemical; conditions: organic solvent or mixture, thermodynamic from solid, DCM, RT
Property measured: solubility

QUERY: Answer with reported solubility of `CCC(C)(C)C(=O)N(O)Cc1cc(F)cc(F)c1`
RESULT: > 50 mg/mL

====

test: Approximate solubility in 20 solvent systems at RT; format: physicochemical; conditions: organic solvent or mixture, thermodynamic from solid, MeOH, RT
Property measured: solubility

QUERY: Answer with reported solubility of `CCC(C)(C)C(=O)N(O)Cc1cc(F)cc(F)c1`
RESULT: > 46 mg/mL

====

Test: Approximate solubility in 20 solvent systems at RT
Assay type: physicochemical
Conditions: organic solvent or mixture, thermodynamic from solid, MTBE, RT
Experimental: Approximate solubility of N-(3,5-difluorobenzyl)-N-hydroxy-2,2-dimethylbutanamide (817506-01-A) was measured in 20 solvent systems at RT. Approximately 2 mg of the sample was added into a 3-mL glass vial. Solvents as shown in Table 36 were then added stepwise (50/50/200/700/1000 μL) into the vials until the solids were dissolved visually or a total volume of 2 mL was reached. […]
Property measured: solubility

QUERY: Answer with reported solubility of `CCC(C)(C)C(=O)N(O)Cc1cc(F)cc(F)c1`
RESULT: 2.3 to 7.7 mg/mL

====

experiment: Approximate solubility in 20 solvent systems at RT; format: physicochemical; details: organic solvent or mixture, thermodynamic from solid, THF, RT
Property measured: solubility

QUERY: Answer with reported solubility of `CCC(C)(C)C(=O)N(O)Cc1cc(F)cc(F)c1`
RESULT: 25 to 50 mg/mL

====

assay: Approximate solubility in 20 solvent systems at RT; assay type: physicochemical; conditions: organic solvent or mixture, thermodynamic from solid, 1,4-Dioxane, RT
Property measured: solubility

QUERY: Answer with reported solubility of `CCC(C)(C)C(=O)N(O)Cc1cc(F)cc(F)c1`
RESULT: > 46 mg/mL

====

test: Equilibrium solubility of Type A in H2O at RT; type: physicochemical; details: water, thermodynamic from solid, equilibrium solubility in H2O, RT, 24 hrs, HPLC
Property measured: solubility at 24 h

QUERY: Answer with reported solubility at 24 h of `CCC(C)(C)C(=O)N(O)Cc1cc(F)cc(F)c1`
RESULT: ~150 µg/mL

====

experiment: Approximate solubility in 20 solvent systems at RT; assay type: physicochemical; settings: organic solvent or mixture, thermodynamic from solid, NMP, RT
Property measured: solubility

QUERY: Answer with reported solubility of `CCC(C)(C)C(=O)N(O)Cc1cc(F)cc(F)c1`
RESULT: 2.4 to 48 mg/mL

====

test: Approximate solubility in 20 solvent systems at RT; format: physicochemical; settings: organic solvent or mixture, thermodynamic from solid, EtOH, RT
Property measured: solubility

QUERY: Answer with reported solubility of `CCC(C)(C)C(=O)N(O)Cc1cc(F)cc(F)c1`
RESULT: > 40 mg/mL

====

test: Approximate solubility in 20 solvent systems at RT; assay type: physicochemical; conditions: organic solvent or mixture, thermodynamic from solid, EtOAc, RT
Property measured: solubility

QUERY: Answer with reported solubility of `CCC(C)(C)C(=O)N(O)Cc1cc(F)cc(F)c1`
RESULT: > 44 mg/mL

====

assay: Approximate solubility in 20 solvent systems at RT; assay type: physicochemical; conditions: organic solvent or mixture, thermodynamic from solid, IPA, RT
Property measured: solubility

QUERY: Answer with reported solubility of `CCC(C)(C)C(=O)N(O)Cc1cc(F)cc(F)c1`
RESULT: > 42 mg/mL

====

assay: Approximate solubility in 20 solvent systems at RT; format: physicochemical; conditions: organic solvent or mixture, thermodynamic from solid, DMSO, RT
Property measured: solubility

QUERY: Answer with reported solubility of `CCC(C)(C)C(=O)N(O)Cc1cc(F)cc(F)c1`
RESULT: > 42 mg/mL

====

assay: Approximate solubility in 20 solvent systems at RT; type: physicochemical; conditions: organic solvent or mixture, thermodynamic from solid, ACN, RT
Property measured: solubility

QUERY: Answer with reported solubility of `CCC(C)(C)C(=O)N(O)Cc1cc(F)cc(F)c1`
RESULT: > 50 mg/mL

====

assay: Approximate solubility in 20 solvent systems at RT; type: physicochemical; conditions: organic solvent or mixture, thermodynamic from solid, CHCl3, RT
Property measured: solubility

QUERY: Answer with reported solubility of `CCC(C)(C)C(=O)N(O)Cc1cc(F)cc(F)c1`
RESULT: > 50 mg/mL

====

experiment: Hygroscopicity, DVS isotherm at 25° C. between 0 and 95% RH; assay type: physicochemical; conditions: 25° C./80VRH
Property measured: water uptake (DVS plot) (%)
I only need the number, in %, no unit after it.

QUERY: Answer with reported water uptake (DVS plot) of `CCC(C)(C)C(=O)N(O)Cc1cc(F)cc(F)c1`
RESULT: 0.1

====

experiment: Approximate solubility in 20 solvent systems at RT; format: physicochemical; details: water, thermodynamic from solid, H2O, RT
Property measured: solubility

QUERY: Answer with reported solubility of `CCC(C)(C)C(=O)N(O)Cc1cc(F)cc(F)c1`
RESULT: < 1300 µg/mL

====

experiment: Approximate solubility in 20 solvent systems at RT; assay type: physicochemical; conditions: organic solvent or mixture, thermodynamic from solid, 2-MeTHF, RT
Property measured: solubility

QUERY: Answer with reported solubility of `CCC(C)(C)C(=O)N(O)Cc1cc(F)cc(F)c1`
RESULT: 2200 to 7300 µg/mL
